Attribute: inhibition at 10 µM
test system: platelet aggregation in dog PRP; assay: In-Vitro Platelet Aggregation in PRP (collagen-induced); assay type: cell-based; conditions: Canis lupus familiaris, Test Concentration 1 × 10^-5 (10 μM), dog PRP, collagen 33.3 μg/m final
API: value field is a number in %; no unit string.

# count of solved cases: 5
N=C(N)c1ccc(CCCCC(=O)NC(CC[S+]([O-])Cc2ccccc2)CC(=O)O)cc1 (racemic) = 100
N=C(N)c1ccc(CCCCC(=O)NC(CCS(=O)(=O)Cc2ccccc2)CC(=O)O)cc1 (racemic) = 100
N=C(N)c1ccc(CCCCC(=O)NC(CC(=O)O)CS(=O)(=O)c2ccccc2)cc1 (racemic) = 100
N=C(N)c1ccc(CCCCC(=O)NC(CC(=O)O)CS(=O)(=O)c2ccc(F)cc2)cc1 (racemic) = 100
N=C(N)c1ccc(CCCCC(=O)NC(CSc2ccccc2)CC(=O)O)cc1 (racemic) = 100

Sure, the documented inhibition at 10 µM for CC(C)OC(=O)CC(CS(=O)(=O)c1ccccn1)NC(=O)CCCCc1ccc(C(=N)N)cc1 (stereo not shown) is 28

Sure, the documented inhibition at 10 µM for CCOC(=O)CC(C[S+]([O-])c1ccccc1)NC(=O)CCCCc1ccc(C(=N)N)cc1 (racemic) is 0

Measured values drawn from patent US5543425A for this set.
